- Test Summary: qHTS assay to identify small molecule antagonists of the estrogen related receptor signaling pathway with the pleiotropic PPARgamma coactivator (PGC) from Tox21 10K library (AID 1224841); note: % is set by controls: 0 for no effect and ±100 for the full control effect; actives are mostly falling curves and most rising ones were filed inactive; nearly all actives have a fitted effect of over 50% in size
- Condition: PGC/ERR reporter cell line, ONE-Glo luciferase, 18 h; series mostly up to 92.4 µM
Inconclusive results are not listed. Active and inactive are the calls of the source. The rule behind the calls is not given here.
Observation Type: activity, negative = inhibition

// worked examples, activity, negative = inhibition included
compound=ClC(Cl)(Br)Br result=inactive
compound=CC(=O)Nc1c(I)cc(I)c(C(=O)O)c1I result=inactive
compound=N[C@@H](C(=O)N[C@@H]1C(=O)N2C(C(=O)O)=C(Cl)CS[C@H]12)c1ccccc1 result="-0.314% [at 8.39 µM] (inactive)"
compound="CC(C[N+](C)(C)C)OC(N)=O (configuration not stated)" result=inactive
compound=CC/C=C\CC/C=C/CO result=inactive
compound=CCc1ccc(O)c(OC)c1 result=inactive

Input line: Which activity, negative = inhibition is reported for this compound? CC(C)=CCCC(C)CC(=O)O (configuration not stated)
Output line: inactive

Input line: What would you report for FC(F)OC(Cl)C(F)(F)F (configuration not stated) ?
Output line: inactive

Input line: // next record FC1(F)C(F)(F)C(F)(F)C2(F)C(F)(F)C(F)(F)C(F)(F)C(F)(F)C2(F)C1(F)F (configuration not stated)
Output line: inactive

Input line: Consider next the compound CC1=CC(C)C(C=O)CC1 (configuration not stated) in the same way.
Output line: inactive

Input line: Lookup "Cc1ccc(=O)n(-c2ccccc2)c1"
Output line: inactive

Input line: Follow-up item: "CN1CCN(c2cc3c(cc2F)c(=O)c(C(=O)O)cn3-c2ccc(F)cc2)CC1"
Output line: inactive

Input line: Would you mind doing "COc1nc(N)nc2c1ncn2[C@@H]1O[C@H](CO)[C@@H](O)[C@@H]1O" as well?
Output line: inactive

Input line: Please give the result for "O=C(O)c1ccccc1OP(=O)(O)O" too.
Output line: inactive

Input line: Also COC(=O)c1ccc(C)cc1C1=NC(C)(C(C)C)C(=O)N1 (configuration not stated) , if possible.
Output line: inactive

Input line: Field entry: "N[C@H](C(=O)O)c1ccc(O)cc1"
Output line: 1.15% [at 19 µM] (inactive)

Input line: Note, next up: "O=c1cc(CO)occ1O"
Output line: inactive

Input line: Can you handle CCn1ccnc1CC1COc2ccccc2O1 (configuration not stated) next?
Output line: inactive

Input line: # repeat for "N=C(N)c1ccc(OCCCOc2ccc(C(=N)N)cc2)cc1"
Output line: inactive

Input line: Try the compound Cn1cc(S(C)=O)c(=O)c2ccc(F)cc21 (configuration not stated)
Output line: inactive

Input line: Now the same for "CCCCCCCCCCCCCCCCC"
Output line: inactive

Input line: Queued: "CCO/C([O-])=N/c1c[n+](N2CCOCC2)no1"
Output line: inactive

Input line: Queued: "CCOC(C)(C)C"
Output line: inactive

Input line: Moving on to "Cc1cc2c(cc1S(N)(=O)=O)S(=O)(=O)CCC2"
Output line: inactive

Input line: Note, next up: "COC(=O)c1cc(C(=O)OC)cc(S(=O)(=O)O)c1"
Output line: inactive

Input line: Would you kindly repeat that for "N=C(N)c1ccc2cc(OC(=O)c3ccc(N=C(N)N)cc3)ccc2c1" ?
Output line: inactive

Input line: And O=C1CC2CC1C1CCCC21 (configuration not stated) ?
Output line: inactive

Input line: Similarly, "C/C=C(\C)C#N" ?
Output line: inactive

Input line: Entry to check: "Brc1c(NC2=NCCN2)ccc2nccnc12"
Output line: inactive

Input line: "CC(=O)Nc1ccc(S(N)(=O)=O)cc1" , same question.
Output line: inactive
